Reported Concentration [M] of Antibody at 125% activation values for a set of binders
- TARGET: full length human PD-L1 (amino acids 1 to 290 of NP_054862.1) on transfected cells (human, UniProt Q9NZQ7 19-290)
- Sequence (Q9NZQ7 19-290 limits assumed): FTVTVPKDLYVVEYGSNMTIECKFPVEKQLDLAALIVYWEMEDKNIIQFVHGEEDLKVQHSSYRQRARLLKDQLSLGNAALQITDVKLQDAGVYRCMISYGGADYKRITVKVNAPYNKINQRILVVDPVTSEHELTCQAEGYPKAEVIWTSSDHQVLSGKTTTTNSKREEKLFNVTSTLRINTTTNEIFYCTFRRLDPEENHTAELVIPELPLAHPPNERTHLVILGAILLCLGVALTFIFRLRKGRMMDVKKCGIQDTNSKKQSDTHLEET
- EXPERIMENT: cell-based or functional assay
Unit M implied. Number only.

| BINDER | UNIT_NAME | READOUT_NUMBER |
| --- | --- | --- |
| H2aM8323N (antibody, V domains shown, human variable regions, mouse IgG2 Fc (H2aM prefix); also called H2M8323N) VH: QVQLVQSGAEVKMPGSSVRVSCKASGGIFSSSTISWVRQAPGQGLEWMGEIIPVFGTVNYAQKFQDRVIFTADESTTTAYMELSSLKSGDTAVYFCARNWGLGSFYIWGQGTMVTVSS VL: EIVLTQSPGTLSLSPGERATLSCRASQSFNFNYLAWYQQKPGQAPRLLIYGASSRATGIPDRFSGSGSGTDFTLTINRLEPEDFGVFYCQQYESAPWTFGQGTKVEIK | M | 2.2e-10 |
| H1H9336P (antibody, V domains shown, human IgG1 Fc (H1H prefix)) VH: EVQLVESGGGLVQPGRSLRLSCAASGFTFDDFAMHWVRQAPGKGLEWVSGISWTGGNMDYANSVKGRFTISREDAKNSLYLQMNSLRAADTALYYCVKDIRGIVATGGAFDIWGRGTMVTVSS VL: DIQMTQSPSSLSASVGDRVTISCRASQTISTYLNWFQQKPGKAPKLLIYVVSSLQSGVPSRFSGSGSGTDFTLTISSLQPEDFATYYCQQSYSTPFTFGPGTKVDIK | M | 9.81e-11 |
| H2aM8314N (antibody, V domains shown, human variable regions, mouse IgG2 Fc (H2aM prefix); also called H2M8314N) VH: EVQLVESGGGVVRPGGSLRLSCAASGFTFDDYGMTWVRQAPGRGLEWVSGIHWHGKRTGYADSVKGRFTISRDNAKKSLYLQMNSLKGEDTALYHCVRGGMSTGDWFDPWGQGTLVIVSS VL: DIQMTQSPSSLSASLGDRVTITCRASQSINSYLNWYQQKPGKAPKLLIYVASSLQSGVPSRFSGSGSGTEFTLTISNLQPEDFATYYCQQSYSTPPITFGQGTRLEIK | M | 1.44e-11 |

Bench note: what Concentration [M] of Antibody at 125% activation did H1H8314N (antibody, V domains shown, human IgG1 Fc form (H1H prefix) of numerical identifier 8314) VH: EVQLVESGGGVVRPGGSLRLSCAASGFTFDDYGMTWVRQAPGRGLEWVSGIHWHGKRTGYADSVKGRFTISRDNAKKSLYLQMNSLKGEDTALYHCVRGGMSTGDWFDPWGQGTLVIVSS VL: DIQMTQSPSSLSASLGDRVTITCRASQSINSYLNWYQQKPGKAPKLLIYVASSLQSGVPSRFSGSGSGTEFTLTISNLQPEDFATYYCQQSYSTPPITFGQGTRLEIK show?
6.57e-11
